Target: T1, human glucose-dependent insulinotropic polypeptide (GIP) receptor (human, UniProt P48546 22-466)
T1 sequence (looked up): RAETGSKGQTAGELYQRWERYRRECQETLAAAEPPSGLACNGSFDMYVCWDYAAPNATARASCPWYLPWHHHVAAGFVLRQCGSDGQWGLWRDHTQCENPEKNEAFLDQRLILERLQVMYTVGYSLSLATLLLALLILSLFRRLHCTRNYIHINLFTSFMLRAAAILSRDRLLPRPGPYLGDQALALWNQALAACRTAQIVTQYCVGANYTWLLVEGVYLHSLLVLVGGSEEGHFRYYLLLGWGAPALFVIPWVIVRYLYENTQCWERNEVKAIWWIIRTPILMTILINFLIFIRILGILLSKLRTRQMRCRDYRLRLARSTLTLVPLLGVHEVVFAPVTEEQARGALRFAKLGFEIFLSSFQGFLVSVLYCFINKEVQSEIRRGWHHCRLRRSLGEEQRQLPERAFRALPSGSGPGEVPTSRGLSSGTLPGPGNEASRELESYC
Assay: cell-based or functional assay
Returns: string. Value is Yes if measured cAMP Emax is below 90%, and No if it is greater than or equal to it.

{"BINDER": "YXEGTXTSDXSIXLDXKAQXXFIXXLIEGGKSSGAPPPS (Aib2, αMeF(2F)6, 4Pal10, αMeL13, Orn16, K17(Z), Aib20, 4Pal21, D-Glu24, αMeY25, K31(Z), C-terminal NH2; Z = AEEA2-(γ-Glu)-CO-(CH2)12-CO2H) [Example 157]", "LABEL": "No"}
{"BINDER": "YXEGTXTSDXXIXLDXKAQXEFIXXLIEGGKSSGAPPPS (Aib2, αMeF(2F)6, 4Pal10, Tle11, αMeL13, Orn16, K17(Z), Aib20, D-Glu24, αMeY25, K31(Z), C-terminal NH2; Z = AEEA2-(γ-Glu)-CO-(CH2)12-CO2H) [Example 202]", "LABEL": "Yes"}
{"BINDER": "YXEGTXTSDVXIXLDXKAQXEFIXXLIEGGKSSGAPPPS (Aib2, αMeF(2F)6, αMeS11, αMeL13, Orn16, K17(Z), Aib20, D-Glu24, αMeY25, K31(Z), C-terminal NH2; Z = AEEA2-(γ-Glu)-CO-(CH2)12-CO2H) [Example 212]", "LABEL": "No"}

Reference source for all entries: patent US20230265151A1
